Test system: BT20 Cell
Assay: Cancer Cell Lysate Total L-Glutamate Assay
Format: cell-based
Conditions: Homo sapiens, BT-20, 2 h, total L-glutamate in cell lysate, BT20 cells, 2 hour incubation with test compound
pIC50: −log10 of the molar value.
RECORDED_ENDPOINT: pIC50

[
  {
    "COMPOUND": "O=C(Cc1ccccn1)Nc1ccc(C[C@H]2CC[C@@H](c3nnc(Nc4ccccn4)s3)C2)nn1 (single isomer, unassigned) [Example 74]",
    "pIC50": 8.47
  },
  {
    "COMPOUND": "CC(=O)Nc1nnc(C2CC[C@H](Cc3nnc(NC(=O)Cc4ccccn4)s3)C2)s1 (single isomer, unassigned) [Example 19]",
    "pIC50": 5.83
  },
  {
    "COMPOUND": "CC(=O)Nc1nnc([C@H]2CC3(C[C@H](c4nnc(NC(C)=O)s4)C3)C2)s1 (single isomer, unassigned) [Example 93]",
    "pIC50": 7.98
  },
  {
    "COMPOUND": "Cc1ccc(CC(=O)Nc2nnc(C[C@H]3C[C@H](c4nnc(NC(=O)Cc5ccc(C)cn5)s4)C3)s2)nc1 (single isomer, unassigned) [Example 109]",
    "pIC50": 8.89
  },
  {
    "COMPOUND": "O=C(Cc1ccccc1)Nc1ccc(CC2CCC(c3nnc(NC(=O)Cc4ccccn4)s3)C2)nn1 (racemic) [Example 1]",
    "pIC50": 9.15
  },
  {
    "COMPOUND": "CC(=O)Nc1nnc([C@@H]2CC[C@H](Cc3nnc(NC(=O)c4ccccc4F)s3)C2)s1 (racemic) [Example 148]",
    "pIC50": 7.90
  },
  {
    "COMPOUND": "Cn1ccc(Nc2nnc(C3CCC(Cc4nnc(NC(=O)Cc5ccccn5)s4)C3)s2)n1 (racemic) [Example 88]",
    "pIC50": 7.89
  },
  {
    "COMPOUND": "CCC(=O)Nc1nnc([C@H]2CC[C@@H](Cc3ccc(NC(=O)Cc4ccccn4)nn3)C2)s1 [Example 119]",
    "pIC50": 9.70
  },
  {
    "COMPOUND": "C[C@H](C(=O)Nc1nnc(C[C@H]2CC[C@@H](c3nnc(NC(=O)[C@H](C)c4cccnc4)s3)C2)s1)c1cccnc1 (single isomer, unassigned) [Example 34]",
    "pIC50": 6.03
  }
]

[a] O=C(Cc1ccccc1)Nc1ccc(C[C@H]2C[C@@H](c3nnc(NC(=O)Cc4ccccn4)s3)C2)nn1 (single isomer, unassigned) [Example 118]
[b] CC(=O)Nc1nnc([C@@H]2CC[C@H](Cc3nnc(NC(=O)Cc4ccc(C)nc4)s3)C2)s1 (single isomer, unassigned) [Example 54]
[c] CC(=O)Nc1nnc([C@@H]2CC[C@H](Cc3nnc(NC(=O)Cc4ccn(C)n4)s3)C2)s1 (racemic) [Example 146]
[d] C[C@H](C(=O)Nc1nnc([C@H]2CC[C@@H](Cc3nnc(NC(=O)[C@H](C)c4cccnc4)s3)C2)s1)c1cccnc1 (single isomer, unassigned) [Example 35]
Rank by pIC50 (largest to smallest). Please list the labels in the order you were asked to rank them.
a, c, d, b
